measure_name: melting point

Here are 3 compounds together with their reported answers.
[[record]]
compound = "CC(=O)c1ccc2c(c1)C(C#CC1CC1)(C(F)(F)F)OC(=O)N2 (racemic) [Example 7]"
value = "197 to 200 °C"

[[record]]
compound = "O=C1Nc2c(F)cc(Cl)cc2C(C#CC2CC2)(C(F)(F)F)O1 (racemic) [Example 4]"
value = "169 to 171 °C"

[[record]]
compound = "Cc1ccc2c(c1)C(C#CC1CC1)(C(C)C)OC(=O)N2 (racemic) [Example 5]"
value = "138 to 138.5 °C"


Suppose we examine the compound O=C1Nc2ccc(Cl)cc2[C@@](C#Cc2ccccn2)(C(F)(F)F)O1 [Example 23] ; what melting point value has been reported?
185.8 °C

Cited source for all entries: patent US6492515B2
